For each entry below, report its Capping rate value.
# studyTarget: T7 RNA polymerase (Escherichia phage T7, UniProt P00573)
# Sequence (P00573 whole entry): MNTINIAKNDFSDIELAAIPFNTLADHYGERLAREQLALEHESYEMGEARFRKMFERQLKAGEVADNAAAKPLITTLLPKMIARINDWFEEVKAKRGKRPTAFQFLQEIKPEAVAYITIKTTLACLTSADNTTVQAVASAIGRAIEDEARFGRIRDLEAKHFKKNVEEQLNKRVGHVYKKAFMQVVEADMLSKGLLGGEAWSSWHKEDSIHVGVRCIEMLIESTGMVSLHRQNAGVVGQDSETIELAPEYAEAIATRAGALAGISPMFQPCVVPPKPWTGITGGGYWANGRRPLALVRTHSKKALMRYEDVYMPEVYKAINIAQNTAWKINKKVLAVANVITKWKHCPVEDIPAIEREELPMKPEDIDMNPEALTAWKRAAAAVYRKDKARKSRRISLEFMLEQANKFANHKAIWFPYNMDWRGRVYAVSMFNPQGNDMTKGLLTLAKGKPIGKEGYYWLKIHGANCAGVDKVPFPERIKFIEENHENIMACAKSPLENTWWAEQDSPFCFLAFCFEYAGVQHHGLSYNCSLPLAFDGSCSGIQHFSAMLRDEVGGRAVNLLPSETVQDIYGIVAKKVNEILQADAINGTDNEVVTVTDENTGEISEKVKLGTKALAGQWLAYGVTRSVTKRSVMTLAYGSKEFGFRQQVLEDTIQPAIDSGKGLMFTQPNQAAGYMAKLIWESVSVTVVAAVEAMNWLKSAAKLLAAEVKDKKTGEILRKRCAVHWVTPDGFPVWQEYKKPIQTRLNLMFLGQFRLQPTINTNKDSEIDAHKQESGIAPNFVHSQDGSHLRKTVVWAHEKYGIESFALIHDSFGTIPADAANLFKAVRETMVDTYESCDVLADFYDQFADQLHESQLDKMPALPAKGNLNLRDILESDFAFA
# assaySummary: IVT capping rate of mRNA by LC-MS
# Type: biochemical
# appliedConditions: LC-MS after RNase H cleavage
Answers are plain numbers, in %.

Would you be so kind as to report Capping rate for each listed record?
1. CO[C@H]1C(OP(=O)(O)OC[C@H](CO)O[C@H](CO)n2cnc3c(=O)[nH]c(N)nc32)[C@@H](COP(=O)(O)OP(=O)([O-])OP(=O)(O)OC[C@H](CO)O[C@H](CO)n2c[n+](C)c3c(=O)[nH]c(N)nc32)O[C@H]1n1cnc2c(N)ncnc21 (stereo partly shown) [Example 2]
2. CO[C@H]1C(OP(=O)(O)OC[C@H]2O[C@@H](n3cnc4c(=O)[nH]c(N)nc43)[C@@H](O)C2O)[C@@H](COP(=O)(O)OP(=O)([O-])OP(=O)(O)OC[C@H](CO)O[C@H](CO)n2c[n+](C)c3c(=O)[nH]c(N)nc32)O[C@H]1n1cnc2c(N)ncnc21 (stereo partly shown) [Example 1]
3. C[n+]1cn([C@@H](CO)O[C@@H](CO)COP(=O)([O-])OP(=O)(O)OP(=O)(O)OC[C@]23COC(C2OP(=O)(O)OC[C@H]2O[C@@H](n4cnc5c(=O)[nH]c(N)nc54)C(O)C2O)[C@H](n2cnc4c(N)ncnc42)O3)c2nc(N)[nH]c(=O)c21 (stereo partly shown) [Example 7]
4. COCCOC1C(OP(=O)(O)OC[C@H]2O[C@@H](n3cnc4c(=O)[nH]c(N)nc43)C(O)C2O)[C@@H](COP(=O)(O)OP(=O)(O)OP(=O)([O-])OC[C@H](CO)O[C@H](CO)n2c[n+](C)c3c(=O)[nH]c(N)nc32)O[C@H]1n1cnc2c(N)ncnc21 (stereo partly shown) [Example 6]

Result block:
[96.5, 99.3, 97.6, 95.2]

----------
# studyTarget: T7 RNA polymerase (Escherichia phage T7)
# assaySummary: In vitro transcription yield of mRNA by co-transcriptional capping
# Type: biochemical
# appliedConditions: mRNA from 20 μl IVT, 1 μg template, 37° C. 2 h, Nanodrop One
quantityName: Yield (µg)
Answers are plain numbers, in µg.

- molecule: "COCCOC1C(OP(=O)(O)OC[C@H]2O[C@@H](n3cnc4c(=O)[nH]c(N)nc43)C(O)C2O)[C@@H](COP(=O)(O)OP(=O)(O)OP(=O)([O-])OC[C@H](CO)O[C@H](CO)n2c[n+](C)c3c(=O)[nH]c(N)nc32)O[C@H]1n1cnc2c(N)ncnc21 (some centres unmarked)"
  observed: 44

API: the following record is the query input.
Query block: GET /values?readout=Yield&system=T7 RNA polymerase (Escherichia phage T7)&item= COC[C@@H](COP(=O)(O)OP(=O)([O-])OP(=O)(O)OC[C@H]1O[C@@H](n2cnc3c(N)ncnc32)C(OC)C1OP(=O)(O)OC[C@H]1O[C@@H](n2cnc3c(=O)[nH]c(N)nc32)C(O)C1O)O[C@H](CO)n1c[n+](C)c2c(=O)[nH]c(N)nc21 (stereo in doubt)
Result block: 71

----------
# studyTarget: T7 RNA polymerase (Escherichia phage T7, UniProt P00573)
# assaySummary: In vitro transcription yield of mRNA by co-transcriptional capping
# Type: biochemical
# appliedConditions: mRNA from 20 μl IVT, 1 μg template, 37° C. 2 h, Nanodrop One
# Method: Test Example 1: Determination of in vitro transcription yield and capping efficiency of mRNA […] Note: During the experiment, the volume of materials required for the system was first calculated, and then the sample was added. […] The purified mRNA was dissolved in sterile enzyme-free water, and then quantitatively measured using Nanodrop One.
Lab note: compare Yield against 50 µg. Equal or greater, write class 1. Smaller, write class 0.

As a guide, the following entries are already answered.
- compound: "COC1C(OP(=O)(O)OC[C@H](CO)O[C@H](CO)n2cnc3c(=O)[nH]c(N)nc32)[C@@H](COP(=O)(O)OP(=O)(O)OP(=O)([O-])OC[C@H]2O[C@@H](n3c[n+](C)c4c(=O)[nH]c(N)nc43)C(O)C2O)O[C@H]1n1cnc2c(N)ncnc21 (stereo partly drawn) [Comparative Example 2, reference compound]"
  studyTarget: "T7 RNA polymerase (Escherichia phage T7, UniProt P00573)"
  classLabel: "class 0"
- compound: "COC[C@@H](O[C@@H](COP(=O)(O)OC[C@H](CO)O[C@H](CO)n1cnc2c(=O)[nH]c(N)nc21)COP(=O)(O)OP(=O)([O-])OP(=O)(O)OC[C@H](CO)O[C@H](CO)n1c[n+](C)c2c(=O)[nH]c(N)nc21)n1cnc2c(N)ncnc21 [Example 4]"
  studyTarget: "T7 RNA polymerase (Escherichia phage T7, UniProt P00573)"
  classLabel: "class 0"
- compound: "CO[C@H]1C(OP(=O)(O)OC[C@H](CO)O[C@H](CO)n2cnc3c(=O)[nH]c(N)nc32)[C@@H](COP(=O)(O)OP(=O)([O-])OP(=O)(O)OC[C@H](CO)O[C@H](CO)n2c[n+](C)c3c(=O)[nH]c(N)nc32)O[C@H]1n1cnc2c(N)ncnc21 (stereo partly drawn) [Example 2]"
  studyTarget: "T7 RNA polymerase (Escherichia phage T7, UniProt P00573)"
  classLabel: "class 1"
- compound: "C[n+]1cn([C@@H](CO)O[C@@H](CO)COP(=O)([O-])OP(=O)(O)OP(=O)(O)OC[C@]23COC(C2OP(=O)(O)OC[C@H]2O[C@@H](n4cnc5c(=O)[nH]c(N)nc54)C(O)C2O)[C@H](n2cnc4c(N)ncnc42)O3)c2nc(N)[nH]c(=O)c21 (stereo partly drawn) [Example 7]"
  studyTarget: "T7 RNA polymerase (Escherichia phage T7, UniProt P00573)"
  classLabel: "class 1"

Consider the record given below.
Query block: Item CO[C@H]1C(OP(=O)(O)OC[C@H]2O[C@@H](n3cnc4c(=O)[nH]c(N)nc43)[C@@H](O)C2O)[C@@H](COP(=O)(O)OP(=O)([O-])OP(=O)(O)OC[C@H](CO)O[C@H](CO)n2c[n+](C)c3c(=O)[nH]c(N)nc32)O[C@H]1n1cnc2c(N)ncnc21 (stereo partly drawn) [Example 1] with Yield of 50 µg or above?
Result block: class 1

Data provenance: patent US20240132534A1
